Tested on: HepG2
Test: cytotoxicity call (relative viability < 0.9)
Settings: 10 µM
The whole screen tested about 39,000 compounds, of which about 3,300 (8.5%) were called active. Only a selection was taken, and actives are over-represented in it overall.
Select the correct class. Options are y (active), n (inactive) and nothing else.

Example cases with answers are listed next.
- smiles text: "NC(=O)CCCCC(N)=O"
  answer label: "n"
- smiles text: "CCCN(C)C[C@H]1OCCCC[C@H](C)Oc2ccc(NC(=O)c3ccccc3)cc2C(=O)N([C@@H](C)CO)C[C@H]1C"
  answer label: "n"
- smiles text: "CCS(=O)(=O)N1CC[C@]2(CC1)CN([C@H](CO)c1c2c2ccc(cc2n1C)OC)C(=O)c1cccc(c1)F"
  answer label: "n"
- smiles text: "C[C@H]1CN([C@@H](C)CO)C(=O)c2c(c3ccccc3n2C)-c2ccccc2CO[C@@H]1CN(C)C(=O)Nc1ccccc1C(F)(F)F"
  answer label: "n"
- smiles text: "C[C@@H]1CN([C@@H](C)CO)C(=O)c2cccc(NC(=O)c3ccc(-c4nccs4)cc3)c2O[C@H]1CN(C)C(=O)Nc1ccc(F)cc1"
  answer label: "n"
- smiles text: "O=c1[nH]nc(Br)c(=O)[nH]1"
  answer label: "n"
- smiles text: "COc1cccc(S(=O)(=O)N2C[C@@H](O)COC[C@@H]3O[C@H](CC(=O)N4CCN(C)CC4)CC[C@H]32)c1"
  answer label: "n"
- smiles text: "CO[C@@H]1CN(C)C(=O)c2ccc(NC(=O)NC(C)C)cc2OC[C@H](C)N(Cc2ccc(-c3ccccn3)cc2)C[C@@H]1C"
  answer label: "n"

Query: Call for entry C[C@@H]1CCCCO[C@@H](CN(C)C(=O)c2ccccc2)[C@H](C)CN([C@@H](C)CO)C(=O)c2cc(NS(=O)(=O)c3ccccc3)ccc2O1 :
Response: n

Query: Also C[C@@H]1CN([C@H](C)CO)C(=O)c2cc(Br)cnc2O[C@@H]1CN(C)C(=O)Nc1ccc(F)cc1 ?
Response: n

Query: Also C[C@H](CO)N1C[C@H](C)[C@@H](CN(C)C(=O)CCC(F)(F)F)OCCCC[C@H](C)Oc2ccc(NC(=O)c3ccccc3)cc2C1=O ?
Response: n

Query: Also C[C@H]1CN([C@@H](C)CO)C(=O)Cc2cc(NC(=O)Nc3ccccc3)ccc2O[C@@H]1CN(C)Cc1ccc(Oc2ccccc2)cc1 ?
Response: y

Query: Also COc1ccc(S(=O)(=O)N(C)C[C@H]2OCCCC[C@@H](C)Oc3ccc(NS(C)(=O)=O)cc3C(=O)N([C@H](C)CO)C[C@@H]2C)cc1 ?
Response: n

Query: Also C[C@@H]1CN([C@H](C)CO)C(=O)Cc2cc(NC(=O)Nc3ccccc3)ccc2O[C@H]1CN(C)Cc1ccc(Oc2ccccc2)cc1 ?
Response: y

Query: Also CC(=O)NCC(=O)N1CCC2(CC1)C(=O)N(CC1CC1)CCN2C ?
Response: n

Query: Also C[C@@H]1CCCCO[C@@H](CN(C)C(=O)NC2CCCCC2)[C@H](C)CN([C@@H](C)CO)C(=O)c2cc(NC(=O)c3ccccc3)ccc2O1 ?
Response: n

* * *

System: HepG2
Experiment: cytotoxicity call (relative viability < 0.9)
Settings: 10 µM
Out of some 39,000 compounds screened, about 3,300 (8.5%) were called active. The entries come from a sample that favours actives as a whole.
Select the correct class. Options are active, inactive and nothing else.

Example cases with answers are listed next.
- compound: "C[C@@H]1CCCCO[C@H](CN(C)C(=O)Nc2ccc(C(F)(F)F)cc2)[C@@H](C)CN([C@@H](C)CO)C(=O)c2cc(NS(=O)(=O)c3ccc(F)cc3)ccc2O1"
  system name: "HepG2"
  answer label: "inactive"
- compound: "C[C@H](CO)N1C[C@H](C)[C@@H](CN(C)C(=O)Nc2ccc(C(F)(F)F)cc2)OCCCC[C@H](C)Oc2ccc(NS(=O)(=O)c3ccc(F)cc3)cc2C1=O"
  system name: "HepG2"
  answer label: "inactive"
- compound: "CCOC(=O)C1=C(C)NC(C)=C(C(=O)OC)C1c1cccc(Cl)c1Cl (stereo not drawn)"
  system name: "HepG2"
  answer label: "inactive"
- compound: "C[C@@H]1CN([C@@H](C)CO)C(=O)c2cc(NS(=O)(=O)c3ccc(F)cc3)ccc2O[C@@H](C)CCCCO[C@@H]1CN(C)C(=O)Nc1ccc(C(F)(F)F)cc1"
  system name: "HepG2"
  answer label: "active"
- compound: "COC(=O)C1=C(C)NC(C)=C(C(=O)OC)C1c1ccccc1[N+](=O)[O-]"
  system name: "HepG2"
  answer label: "inactive"
- compound: "C[C@H](CO)N1C[C@H](C)[C@H](CN(C)C(=O)Nc2ccc(C(F)(F)F)cc2)OCCCC[C@H](C)Oc2ccc(NS(=O)(=O)c3ccc(F)cc3)cc2C1=O"
  system name: "HepG2"
  answer label: "inactive"
- compound: "C[C@H]1CCCCO[C@H](CN(C)C(=O)Nc2ccc(C(F)(F)F)cc2)[C@@H](C)CN([C@@H](C)CO)C(=O)c2cc(NS(=O)(=O)c3ccc(F)cc3)ccc2O1"
  system name: "HepG2"
  answer label: "active"
- compound: "Cc1cc(C(=O)Nc2cccc3c2O[C@@H](CN(C)C(=O)Nc2c(C)noc2C)[C@@H](C)CN([C@@H](C)CO)C3=O)n(C)n1"
  system name: "HepG2"
  answer label: "inactive"
- compound: "C[C@@H](C(=O)N(C)C[C@H]1OCc2ccccc2-c2c(n(C)c3ccccc23)C(=O)N([C@@H](C)CO)C[C@@H]1C)c1ccccc1"
  system name: "HepG2"
  answer label: "inactive"
- compound: "COc1ccc2c3c([nH]c2c1)[C@H](CO)N(C[C@]13CN(Cc2ccccc2)C1)S(=O)(=O)c1cn(cn1)C"
  system name: "HepG2"
  answer label: "inactive"

Query: Call for entry C[C@@H]1CCCCO[C@H](CN(C)C(=O)Nc2ccc(C(F)(F)F)cc2)[C@H](C)CN([C@@H](C)CO)C(=O)c2cc(NS(=O)(=O)c3ccc(F)cc3)ccc2O1 :
Response: active

Query: Also C[C@H](CO)N1C[C@H](C)[C@H](CN(C)C(=O)[C@H](C)c2ccccc2)OCc2ccccc2-c2c(n(C)c3ccccc23)C1=O ?
Response: active

Query: Also C[C@H](C(=O)N(C)C[C@H]1OCc2ccccc2-c2c(n(C)c3ccccc23)C(=O)N([C@@H](C)CO)C[C@H]1C)c1ccccc1 ?
Response: inactive
